- target.or.system: Pyruvate kinase PKM (Homo sapiens) (UniProt P14618)
- Sequence (P14618 whole entry, looked up, canonical isoform): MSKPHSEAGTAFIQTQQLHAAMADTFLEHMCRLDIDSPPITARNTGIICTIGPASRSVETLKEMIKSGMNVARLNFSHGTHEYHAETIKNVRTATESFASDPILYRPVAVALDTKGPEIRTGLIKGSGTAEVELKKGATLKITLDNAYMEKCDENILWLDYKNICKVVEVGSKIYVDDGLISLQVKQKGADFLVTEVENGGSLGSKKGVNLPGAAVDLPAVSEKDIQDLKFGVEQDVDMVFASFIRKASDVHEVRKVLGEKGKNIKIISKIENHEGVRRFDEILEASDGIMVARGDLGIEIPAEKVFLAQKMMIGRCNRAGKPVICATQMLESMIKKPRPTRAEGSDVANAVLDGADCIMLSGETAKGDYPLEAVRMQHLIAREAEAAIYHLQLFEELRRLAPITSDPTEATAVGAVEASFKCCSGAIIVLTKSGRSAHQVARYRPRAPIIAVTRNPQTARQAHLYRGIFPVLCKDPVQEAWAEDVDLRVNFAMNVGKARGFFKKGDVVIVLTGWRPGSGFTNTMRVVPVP
- assay.text: Secondary Concentration-Response Assay for Activators of Human Muscle isoform 1 Pyruvate Kinase: for Probe SAR
- settings: purified hPK-M1, ATP production, Kinase-Glo luminescence
The source made the active and inactive calls. Calls follow the shape of the dose curve; as a rule, active = well fitted curve in the direction sought with a large enough effect; inactive = no such curve, though single readings can be large or run the other way.
Recorded max response, one value per entry.
measured.metric: max response

smiles_entry=O=C1CCc2cc(S(=O)(=O)Nc3cc(F)cc(Cl)c3)c(F)cc2N1 target_or_system="Pyruvate kinase PKM (Homo sapiens) (UniProt P14618)" test_value="1.25% (inactive)"
smiles_entry=N#Cc1ccc(NS(=O)(=O)c2ccc3c(c2)CCC(=O)N3)cc1 target_or_system="Pyruvate kinase PKM (Homo sapiens) (UniProt P14618)" test_value="5.23% (inactive)"
smiles_entry=Cc1cc(NS(=O)(=O)c2ccc3c(c2)CCC(=O)N3)ccc1F target_or_system="Pyruvate kinase PKM (Homo sapiens) (UniProt P14618)" test_value="2.58% (inactive)"
smiles_entry=Cc1ccc(NS(=O)(=O)c2cc3c(cc2C)OCC(=O)N3)cc1C target_or_system="Pyruvate kinase PKM (Homo sapiens) (UniProt P14618)" test_value="2.47% (inactive)"
smiles_entry=O=C1CCc2cc(S(=O)(=O)Nc3ccc(Cl)c(Cl)c3)c(F)cc2N1 target_or_system="Pyruvate kinase PKM (Homo sapiens) (UniProt P14618)" test_value="2.68% (inactive)"
smiles_entry=Cc1ccc(NS(=O)(=O)c2cc3c(cc2F)NC(=O)CC3)cc1Cl target_or_system="Pyruvate kinase PKM (Homo sapiens) (UniProt P14618)" test_value="4.95% (inactive)"
smiles_entry=O=C1CCc2cc(S(=O)(=O)Nc3ccc4c(c3)CCC4)ccc2N1 target_or_system="Pyruvate kinase PKM (Homo sapiens) (UniProt P14618)" test_value="-1.18% (inactive)"
smiles_entry=CC(C)Nc1cccc(S(=O)(=O)N2CCCN(S(=O)(=O)c3ccc4c(c3)OCCO4)CC2)c1 target_or_system="Pyruvate kinase PKM (Homo sapiens) (UniProt P14618)" test_value="4.41% (inactive)"
smiles_entry=O=C1CCc2cc(Cl)c(S(=O)(=O)Nc3ccc(Cl)c(Cl)c3)cc2N1 target_or_system="Pyruvate kinase PKM (Homo sapiens) (UniProt P14618)" test_value="1.66% (inactive)"
smiles_entry=Cc1ccc(NS(=O)(=O)c2ccc3c(c2)CCC(=O)N3)cc1Cl target_or_system="Pyruvate kinase PKM (Homo sapiens) (UniProt P14618)" test_value="8.72% (inactive)"
